Assay method text: CLint assessment in human liver microsomes (HLM)
Assay type: in vitro ADME
Condition description: 1 μM
One threshold, 90 µL/min/mg, splits the recorded HLM CLint values: lower ones are Met, equal or higher ones are Not met.

Example results:
Molecule: CC[C@H](Nc1nc(N[C@@H]2CN(S(=O)(=O)c3ncc[nH]3)C[C@H]2F)c2ncn(C)c2n1)[C@@H](C)O (relative stereo)
Label: Met
//
Molecule: C[C@H](Nc1nc(N[C@@H]2CN(S(=O)(=O)c3ncc[nH]3)C[C@H]2F)c2ncn(C(F)F)c2n1)[C@@H](O)C(F)(F)F (relative stereo)
Label: Met
//
Molecule: CCn1cnc2c(N[C@H]3CCN(S(=O)(=O)CF)C3)nc(N[C@@H](CO)C(C)C)nc21
Label: Not met
//
Molecule: CCn1cnc2c(N[C@H]3CCN(S(=O)(=O)CCOC)C3)nc(N[C@@H](CO)C(C)C)nc21
Label: Not met
//
Molecule: CC(C)n1cnc2c(N[C@H]3CCN(S(C)(=O)=O)C3)nc(N[C@@H](CO)C3CC3)nc21
Label: Not met

Continue with the molecule presented below.
# strict comparison: is reported HLM CLint < 90 µL/min/mg? input = CCn1cnc2c(N[C@H]3CCN(S(=O)(=O)CC(F)(F)F)C3)nc(N[C@@H](CO)C(C)C)nc21 Not met

###

Assay method text: CLint assessment in human hepatocytes (HH)
Assay type: in vitro ADME
Parameters: unit not given here
Condition description: pH 7.4
Measured quantity: microsomal CLint at 1 μM

Supply recorded microsomal CLint at 1 μM for CC[C@H](CO)Nc1nc(N[C@H]2CCN(S(=O)(=O)NC)C2)c2ncn(CC)c2n1 here. < 1

###

Tgt: CDK4:CCND1 (Homo sapiens (Human))
Sequence (P11802 whole entry): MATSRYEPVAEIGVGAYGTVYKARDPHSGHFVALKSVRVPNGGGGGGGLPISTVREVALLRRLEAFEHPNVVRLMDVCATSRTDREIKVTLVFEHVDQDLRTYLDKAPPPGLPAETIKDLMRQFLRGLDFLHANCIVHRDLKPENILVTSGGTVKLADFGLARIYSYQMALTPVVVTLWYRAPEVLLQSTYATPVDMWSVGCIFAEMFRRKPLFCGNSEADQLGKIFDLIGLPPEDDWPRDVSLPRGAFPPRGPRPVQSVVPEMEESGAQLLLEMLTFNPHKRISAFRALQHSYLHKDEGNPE
Sequence (P24385 whole entry partner): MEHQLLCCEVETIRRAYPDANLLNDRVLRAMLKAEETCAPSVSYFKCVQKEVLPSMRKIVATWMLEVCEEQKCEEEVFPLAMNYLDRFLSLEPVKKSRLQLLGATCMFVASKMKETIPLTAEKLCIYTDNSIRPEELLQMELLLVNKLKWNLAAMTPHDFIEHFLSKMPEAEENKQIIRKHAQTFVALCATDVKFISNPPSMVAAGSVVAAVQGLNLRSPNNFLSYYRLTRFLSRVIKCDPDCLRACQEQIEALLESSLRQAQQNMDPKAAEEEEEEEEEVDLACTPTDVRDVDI
Assay method text: NanoBRET assay in MCF-7 cells, CDK4
Assay type: cell-based
Condition description: NanoBRET, transfected MCF-7 cells, 2 hours; n = 1 or average; read-out: CDK4 IC50
Measured pIC50 by item
pIC50 is defined as minus the log10 of a concentration measured in mol/L.

Examples with their reported pIC50 follow.
Molecule: CC(C)[C@H](CO)Nc1nc(N[C@@H]2CN(S(C)(=O)=O)C[C@H]2F)c2ncn(C(C)C)c2n1 [Example 33]
pIC50: 5.09

Molecule: CC[C@H](Nc1nc(N[C@H]2CCN(S(N)(=O)=O)C2)c2ncn(CC)c2n1)[C@@H](C)O [Example 9]
pIC50: 4.69

Molecule: CC[C@H](Nc1nc(N[C@@H]2CN(S(=O)(=O)NC)C[C@H]2F)c2ncn(CC)c2n1)[C@@H](C)O (relative stereo) [Example 52]
pIC50: 4.77

Molecule: CCNS(=O)(=O)N1CC[C@H](Nc2nc(N[C@@H](CO)C3CC3)nc3c2ncn3C(F)F)C1 [Example 14]
pIC50: 6.00

Molecule: CCn1cnc2c(N[C@H]3CCN(S(=O)(=O)NC)C3)nc(N[C@@H](C)[C@@H](O)C(F)(F)F)nc21 (single isomer, unassigned) [Example 50]
pIC50: 4.85

Supply recorded pIC50 for CC[C@H](Nc1nc(N[C@H]2CCN(S(=O)(=O)c3cn(C)cn3)C2)c2ncn(C(C)C)c2n1)[C@@H](C)O [Example 32] here. 4.55

###

Measured IC50 by item
Tgt: CDK2:CCNE1 (Homo sapiens (Human))
Assay method text: NanoBRET assay in MCF-7 cells, CDK2
Condition description: transfected MCF-7 cells, 2 hours, n = 1 or average
Write the answer as a number in nM, unit excluded.

Examples with their reported IC50 follow.
Compound: CCn1cnc2c(N[C@H]3CCN(S(=O)(=O)NC)C3)nc(N[C@@H](C)[C@@H](O)C(F)(F)F)nc21 (single isomer, unassigned) [Example 49]
Readout units: nM
Quantitative readout: 13

Compound: CCn1cnc2c(N[C@@H]3CN(S(=O)(=O)c4ncc[nH]4)C[C@H]3F)nc(N[C@@H](CO)C3CC3)nc21 (relative stereo)
Readout units: nM
Quantitative readout: 9

Compound: CCn1cnc2c(N[C@H]3CCN(S(=O)(=O)CC(F)(F)F)C3)nc(N[C@@H](CO)C(C)C)nc21
Readout units: nM
Quantitative readout: 24

# evaluate next
Supply recorded IC50 for CC[C@H](Nc1nc(N[C@H]2CCN(S(=O)(=O)NC)C2)c2ncn(CC)c2n1)C(C)=O here. 39
